Where these numbers come from: paper PMC12655172

Test system: amyloglucosidase (A. niger)
Construct: purchased Sigma-Aldrich
Assay: Glycosidase inhibition (Table 2 panel)
Format: biochemical
Details: at 1000 μM
Description: The enzymes α-D-glucosidase (yeast), β-D-glucosidases (almond, bovine liver), α-D-galactosidase (coffee beans), β-D-galactosidase (bovine liver), α-D-mannosidase (Jack bean), β-D-mannosidase (snail), α-L-rhamnosidase (P. decumbens), α-L-fucosidase (bovine kidney), trehalase (porcine kidney), β-D-glucuronidases (E. coli, bovine liver), amyloglucosidase (A. niger), para-nitrophenyl glycosides, and various disaccharides were purchased from Sigma-Aldrich Co (St. Louis, MO, USA). […]
experimental-endpoint: inhibition % Amyloglucosidase A. niger

Consider `OC[C@H](O)[C@@H]1[C@H](O)[C@H](O)CN1Cc1ccccc1B(O)O` . Its measured inhibition % Amyloglucosidase A. niger is ^aNI ^b(0%)

Consider `CC1(C)O[C@H]2O[C@H]3[C@@H]([C@H]2O1)N(Cc1cccc(B2OC(C)(C)C(C)(C)O2)c1)C[C@H]3O` . Its measured inhibition % Amyloglucosidase A. niger is ^aNI ^b(0%)
